FYI, the data here is from patent US10023519B2.

# measured-target: human GPR120 (Homo sapiens (Human), UniProt Q5NUL3)
# Sequence (Q5NUL3 whole entry): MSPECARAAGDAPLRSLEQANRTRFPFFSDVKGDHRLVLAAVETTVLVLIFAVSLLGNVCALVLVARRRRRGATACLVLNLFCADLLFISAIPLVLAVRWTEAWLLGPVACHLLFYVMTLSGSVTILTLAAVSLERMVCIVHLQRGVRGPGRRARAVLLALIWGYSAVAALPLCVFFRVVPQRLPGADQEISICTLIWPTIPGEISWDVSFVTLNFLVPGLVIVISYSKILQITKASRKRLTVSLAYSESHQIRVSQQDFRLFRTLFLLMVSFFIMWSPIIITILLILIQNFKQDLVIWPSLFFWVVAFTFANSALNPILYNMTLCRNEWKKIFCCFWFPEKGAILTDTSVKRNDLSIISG
# protocol-text: GPR120 pERK AlphaScreen SureFire Assay (human)
# experimental-context: CHO cells stably transfected with short form of human GPR120
pEC50: −log10 of the molar value.
Binary call on pEC50: condition met from 6 upward, condition not met beneath that.

1) O=C(O)CO[C@H]1C[C@@H](c2ccc(-c3cc(OC(F)(F)F)ccc3F)cc2)C1: condition met
2) Cc1ccc(Oc2cc(F)c(F)c(-c3ccc([C@H]4C[C@@H](OCC(=O)O)C4)cc3)c2)cc1F: condition met
3) O=C(O)CO[C@H]1C[C@@H](c2ccc(-c3cc(Oc4cccc(F)c4)ccc3F)cc2)C1: condition met
4) CC(C)Oc1ccc(F)c(-c2ccc(C3CC4(C3)CC4C(=O)O)cc2)c1 (single isomer, unassigned) [Example 41]: condition not met
5) O=C(O)CO[C@H]1C[C@@H](c2ccc(-c3cccc(Cc4ccccc4)c3)cc2)C1: condition not met
6) O=C(O)CO[C@H]1C[C@@H](c2ccc(-c3cc(Oc4cccc(F)c4)cnc3Cl)cc2)C1: condition met
7) CC(C)Oc1ccc(F)c(-c2ccc(C[C@H]3C[C@@H](CC(=O)O)C3)cc2)c1: condition met
